- Test system: DU-145 prostate
- Protocol text: NCI tumour cell line growth inhibition, 48 h; in the data active = GI50 below about 0.43 µM; inactive = the rest
// allowed return values: t = active, f = inactive

Here's what some known entries look like.
{"columns": ["Compound", "Tested on", "Classification"],
 "data": [
  ["N#Cc1c(N2CCCC2)[nH]c(=O)c(C(c2c(Cl)cccc2Cl)c2c(O)c(C#N)c(N3CCCC3)[nH]c2=O)c1O", "DU-145 prostate", "f"],
  ["COc1ccc2c(c1)cn1c3ccc(O)cc3nc(N)c21", "DU-145 prostate", "t"],
  ["CCOC(=O)c1cc(NS(=O)(=O)c2ccccc2)cc(C(=O)OCC)c1", "DU-145 prostate", "f"],
  ["CC(CCC(=O)O)[C@H]1CCC2[C@@H]3CC[C@@H]4CC(O)CC[C@]4(C)C3CC[C@@]21C (some centres not stated)", "DU-145 prostate", "f"],
  ["N=C(N)c1ccc(-c2ccc(-c3cc(Cl)cc(Cl)c3)o2)nc1", "DU-145 prostate", "f"],
  ["CC1(C)CC(=O)c2c(C(F)(F)F)nn(-c3ccc(C(N)=O)c(NC4CCC(OC(=O)CN)CC4)c3)c2C1 (configuration not stated)", "DU-145 prostate", "t"],
  ["COc1ccc2sc3c(NCCCN(C)C)nc4ccccc4c3c(=O)c2c1", "DU-145 prostate", "f"],
  ["CN(C)CCNc1c2c(c(NCCN(C)C)c3[nH]ccc13)C(=O)c1ccccc1C2=O", "DU-145 prostate", "f"],
  ["CCc1nccc2c1nc(-c1nonc1N)n2CC", "DU-145 prostate", "f"],
  ["Cc1ccccc1[P+](Cc1ccccc1)(c1ccccc1)c1ccccc1", "DU-145 prostate", "f"]
]}

Any idea what this test logged for Nc1ccccc1C#C/C=C\C#Cc1cccs1 ?
f

Which outcome was entered for the compound O=C(NCCO)Nc1ccc(-c2nc(N3CCOCC3)c3cccn3n2)cc1 in this test?
t

* * *

Reported values of TGI for individual entries
- Test system: A549 NSCLC
- Protocol text: NCI tumour cell line growth inhibition, 48 h

{"columns": ["Compound string", "TGI"],
 "data": [
  ["O=c1cc(-c2ccccc2)[nH]c2ccccc12", "> 100 µM"]
]}

Fill in the blank: the reported TGI of CCS(=O)(=O)Nc1ccc(Nc2c3ccccc3nc3ccccc23)c(OC)c1 is ____.
1.7 µM

Return reported TGI; argument: Cc1ccc(C(=O)c2nnc(C(=O)c3ccc(C)cc3)nn2)cc1
> 100 µM

Looking for the measured TGI of Cc1cc(N(CCC#N)CCC#N)ccc1N=Nc1cccc(C(=O)O)c1 , can you help?
> 100 µM

Look up TGI: CCOC(=O)c1ccc(N=C2C(=S)N(c3ccc(C(=O)OCC)cc3)C(=N)N2/N=C/c2ccccc2)cc1
> 100 µM

* * *

- Tested on: A549 NSCLC
- Protocol text: NCI tumour cell line growth inhibition, 48 h
Metric name: TGI (µM)
Quick note: give the figure in µM, leave out the unit.

{"columns": ["Molecule", "Unit of measurement", "TGI"],
 "data": [
  ["O=C(NCCO)Nc1ccc(-c2nc(N3CCOCC3)c3cccn3n2)cc1", "µM", 18.3],
  ["OC(c1cc(-c2ccccc2)nc2ccc(Cl)cc12)C1CCCCN1 (stereo unspecified)", "µM", 8.21]
]}

Now, please, on to the next molecule.
Could you share what TGI was measured for O=C(/C=C/c1ccccc1)c1cc(Br)ccc1O , tested on A549 NSCLC?
52.2

* * *

- Test system: LOX IMVI melanoma
- Protocol text: NCI tumour cell line growth inhibition, 48 h; in the data active = GI50 below about 0.43 µM; inactive = the rest
Your response should consist of one outcome taken from active, inactive

Write down the call the test reported for this compound. Item: COc1ccc(/C(C#N)=C/c2ccccc2OC)cc1
inactive

Record request — test call for CCc1nccc2c1nc(-c1nonc1N)n2CC
inactive

Tell me the assay call for Nc1ccccc1C#C/C=C\C#Cc1cccs1 please.
inactive

Given COc1ccc2c(c1)cn1c3ccc(O)cc3nc(N)c21 , state the outcome it received in this test.
active

So what was the verdict on COc1cc(C2CC(c3ccc4c(c3)OCO4)=NN2C=O)cc(OC)c1OC (stereo not given) in this test?
inactive

* * *

Known TGI of a selection of compounds
- Test system: OVCAR-5 ovarian
- Protocol text: NCI tumour cell line growth inhibition, 48 h

For orientation, consider the following solved cases.
{"columns": ["Compound", "Tested on", "TGI"],
 "data": [
  ["Cn1cccc1-c1cc(-c2cccs2)nc(N)c1C#N", "OVCAR-5 ovarian", "> 100 µM"],
  ["C=CCOc1ccc(/C(N=Nc2ccc([N+](=O)[O-])cc2)=N/NC(=O)c2ccccc2)cc1OC", "OVCAR-5 ovarian", "> 100 µM"],
  ["C/C(=N/NC(=S)Nc1ccc([N+](=O)[O-])cc1)c1cccc(/C(C)=N\\NC(=S)Nc2ccc([N+](=O)[O-])cc2)n1", "OVCAR-5 ovarian", "21.7 µM"],
  ["CCCCCCCCCCCCCCCCN1CC2CCCCC2C1 (centres undefined)", "OVCAR-5 ovarian", "18.8 µM"]
]}

Which value of TGI has been reported for C[C@H](OCc1ccccc1)C(=O)N1CCS(=O)(=O)N2CCC[C@H]2C1=O in the records?
> 100 µM

Record request: TGI value, item CC(=O)OCC1OC(SC2=N/C(=C\c3cc4c(=O)c5ccccc5sc4s3)C(=O)N2c2ccccc2)C(OC(C)=O)C(OC(C)=O)C1OC(C)=O (centres undefined)
> 100 µM

Endpoint output: TGI of S=c1sc2c(s1)SCCCCSCCCCSc1sc(=S)sc1SCCCCSCCCCS2 . Value?
> 100 µM

Quick one: TGI of O=C(/C=C(\O)c1ccccc1)C(=O)NNc1ccc([N+](=O)[O-])cc1[N+](=O)[O-] ?
58.7 µM

Would you kindly share the measured TGI for COC(=O)[C@@]1(C)CC[C@]2(C)CC[C@]3(C)C4=CC=C5C(=CC(=O)C(O)=C5C)[C@]4(C)[C@@H](O)C[C@@]3(C)[C@@H]2C1 ?
24.5 µM

* * *

- System: DU-145 prostate
- Protocol text: NCI tumour cell line growth inhibition, 48 h
Recorded TGI by entry

Completed entries (count: 5):
{"columns": ["Compound", "Tested on", "TGI"],
 "data": [
  ["CN(C)CCCNC(=O)CCNC(=O)c1cc(NC(=O)c2cc(NC(=O)c3cc(NC(=O)c4nc(NC(=O)CCCNC(=O)c5cc(NC(=O)c6cc(NC(=O)c7cc(NC(=O)c8nccn8C)cn7C)cn6C)cn5C)cn4C)cn3C)cn2C)cn1C", "DU-145 prostate", "> 100 µM"],
  ["CC1OC(O[C@@H]2OC=C(C=O)[C@@]3(O)CC[C@H](C)[C@@H]23)C(O)C(O)C1O (stereo partly drawn)", "DU-145 prostate", "> 100 µM"],
  ["CCCCCCCCCCCCCCCCN1CC2CCCCC2C1 (stereo not drawn)", "DU-145 prostate", "14.1 µM"],
  ["c1ccc([P+](Cc2ccc(C[P+](c3ccccc3)(c3ccccc3)c3ccccc3)cc2)(c2ccccc2)c2ccccc2)cc1", "DU-145 prostate", "> 100 µM"],
  ["O=C(NCCCCCCNC(=O)n1cc(F)c(=O)[nH]c1=O)NCCCOCCOCCOCCOCCOCCOCCOCCOCCOCCOCCOCCOCCOCCOCCOCCOCCOCCOCCOCCOCCOCCCNC(=O)C(O)C(O)C(O)C(O)CO (stereo not drawn)", "DU-145 prostate", "> 100 µM"]
]}

Proceed to the following item.
Tell me the measured TGI of COC12OC3(C4OC41)C(C(=O)O[C@H]3CO[Si](C)(C)C(C)(C)C)C2C(=O)Oc1ccccc1 (stereo partly drawn) , please.
> 100 µM

* * *

- System: HCT-116 colon
- Protocol text: NCI tumour cell line growth inhibition, 48 h
Metric name: GI50

Use these answered entries as a reference point.
{"columns": ["Compound", "GI50"],
 "data": [
  ["COC(=O)[C@H](C[C@H](Cc1ccccc1)NC(=O)c1csc([C@@H](C[C@H](C(C)C)N(C)C(=O)[C@@H](NC(=O)[C@H]2CCCCN2C)C(C)C)OC(C)=O)n1)NC(=O)OCc1ccccc1", "< 0.9 nM"],
  ["COc1ccc2sc3c(NCCCN(C)C)nc4ccccc4c3c(=O)c2c1", "1570 nM"]
]}

So what's the measured GI50 for this one? Nc1ccccc1C#C/C=C\C#Cc1cccs1
9550 nM

Requested read-out: GI50. Entry: COc1ccc(-c2nn3c(-c4cc(F)c(Cl)cc4Cl)nnc3s2)cc1
20800 nM

Given the entry CN(C)CCNc1c2c(c(NCCN(C)C)c3[nH]ccc13)C(=O)c1ccccc1C2=O , report its measured GI50.
281 nM

I would be grateful if you could share the reported GI50 for COc1cccc2c1c(C(=O)C(=O)Nc1cc(C)no1)cn2Cc1ccc(F)cc1 .
5580 nM

# GI50 lookup, item COc1ccc2c(c1)cn1c3ccc(O)cc3nc(N)c21
34.1 nM

// query GI50 value for entry COc1cc2c(c(OC)c1)C1c3ccccc3NC(=O)N1CC2 (stereo not given)
3690 nM

Suppose we examine the compound O=C(CCCCCCC(=O)Nc1ccc(N(CCCl)CCCl)cc1)NO ; what GI50 value has been reported?
1970 nM

Tell me the measured GI50 of CC(C)c1cc(-c2n[nH]c(=O)n2-c2ccc3c(ccn3C)c2)c(O)cc1O , please.
< 14.1 nM
